- Test system: SW-620 colon
- Protocol: NCI tumour cell line growth inhibition, 48 h
Property label: TGI

Worked cases, TGI given:
[
  {
    "Molecule": "CCOC(=O)C[C@@H]1C2(C=C[C@@]13CO3)OCC(C)(C)CO2",
    "Assay system": "SW-620 colon",
    "Property label": "TGI",
    "Assay value": "> 100 µM"
  },
  {
    "Molecule": "CC(C)C[C@H](NC(=O)[C@H](Cc1ccccc1)NC(=O)CCc1ccccc1)B(O)O",
    "Assay system": "SW-620 colon",
    "Property label": "TGI",
    "Assay value": "< 0.0104 µM"
  },
  {
    "Molecule": "CC(C)Nc1ccc(Nc2ccccc2)cc1",
    "Assay system": "SW-620 colon",
    "Property label": "TGI",
    "Assay value": "45.8 µM"
  }
]

Could you tell me TGI for each of these molecules? They are listed below.
1. O=S(=O)(Cc1ccc(Cl)cc1Cl)c1ccc(Cl)cc1
2. COC(=O)[C@H](Cc1ccccc1)NC(=O)N1CCCN(C(=O)N[C@@H](Cc2ccccc2)C(=O)OC)CCCN(C(=O)N[C@@H](Cc2ccccc2)C(=O)OC)CCC1
3. n1onc2c1NC1Nc3nonc3NC1N2 (stereo not given)

1. > 100 µM
2. 39.7 µM
3. > 100 µM

Could you tell me TGI for each of these molecules? They are listed below.
1. Cc1ccc(NC(=O)Cc2ccc(/C=C/C(=O)c3ncc[nH]3)cc2)cc1
2. N#Cc1n[nH]n(C2CCCCC2)c1=O

1. > 25 µM
2. > 100 µM

Could you tell me TGI for each of these molecules? They are listed below.
1. Cc1nc2ccc(Cl)cc2c2c1CCS2
2. CC(=O)Oc1cc(C)c2c(c1OC(C)=O)CC1(O2)[C@@H](C)CCC2[C@@]3(C)CC[C@H](OC(C)=O)C(C)(C)C3CC[C@]21C (stereo not given in full)

1. > 100 µM
2. 12.3 µM
